target-entity: CypD (Homo sapiens)
Sequence (P30405 30-207): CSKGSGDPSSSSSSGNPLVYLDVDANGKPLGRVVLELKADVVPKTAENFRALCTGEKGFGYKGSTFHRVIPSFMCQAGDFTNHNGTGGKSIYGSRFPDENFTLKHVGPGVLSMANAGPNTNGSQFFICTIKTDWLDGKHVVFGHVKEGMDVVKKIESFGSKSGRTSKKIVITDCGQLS
measurement-kind: pIC50
The quantity pIC50 is defined as the negative base-10 logarithm of the molar concentration.

(Q) Answer with reported pIC50 of NCCOCCNC(=O)[C@@H]1CCNC(=O)/C=C/C(=O)N2CCC[C@](Cc3ccccc3)(C2)C(=O)N[C@@H](Cc2ccc(-c3ccc(CCC(=O)O)cc3)cc2)C(=O)NCc2ccccc2CC(=O)N1 [A-81]
(A) 8.60

Reference source: patent US20230117680A1
